B1: Glucocorticoid receptor, residues 419 to 494; numbered along this chain, P04150 (parent)
chain: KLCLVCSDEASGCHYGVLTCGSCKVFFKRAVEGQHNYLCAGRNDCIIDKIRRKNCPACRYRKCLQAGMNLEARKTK

- Variants of: B1
- Protocol: abundance fitness (aPCA) (normalised: wild type 0, dead -1); higher = more abundant; growth selection in yeast, the domain comes from the species named
- Experimental Parameters: Homo sapiens
Everything with abundance fitness lower than -0.2 is criterion not met; everything else, including exactly -0.2, is criterion met.

Q: Tell me whether abundance fitness is at least -0.2 here: R73N
A: criterion met

Q: API: above_or_equal(metric=abundance fitness, cutoff=-0.2) for item K49V
A: criterion met

Q: Reported abundance fitness at or above -0.2? K1N
A: criterion met

Q: Kindly determine if abundance fitness recorded for C45I is above or exactly -0.2.
A: criterion not met

Q: hey, is abundance fitness for this one >= -0.2? C39K
A: criterion not met

Q: I'd appreciate it if you could say whether C55F has abundance fitness at least equal to -0.2.
A: criterion not met

Q: Does abundance fitness meet or surpass -0.2 for G16Q ?
A: criterion not met

Q: abundance fitness >= -0.2 for N36V ?
A: criterion met

Q: Test whether the variant R52E records abundance fitness of -0.2 or higher.
A: criterion met

Q: Record C20P ; criterion: abundance fitness no lower than -0.2. Met?
A: criterion not met

Q: Check this variant for abundance fitness at or above -0.2: S11N
A: criterion met

Q: Please check the record G33T and state if its abundance fitness is at or above -0.2.
A: criterion met

Q: Hi, just wondering whether D48Y shows abundance fitness of -0.2 or higher.
A: criterion met

Q: Hi, just wondering whether K1A shows abundance fitness of -0.2 or higher.
A: criterion met

Q: Reported abundance fitness at or above -0.2? R29Q
A: criterion met

Q: Decide: is the reported value of abundance fitness for F27Y equal to or greater than -0.2?
A: criterion met

Q: Would you say Q65D shows abundance fitness at minimum -0.2?
A: criterion met

Q: Decide: is the reported value of abundance fitness for C63L equal to or greater than -0.2?
A: criterion not met

Q: Is abundance fitness for K53S at or above -0.2?
A: criterion met

Q: Record Y15P ; criterion: abundance fitness no lower than -0.2. Met?
A: criterion met

Q: Determine whether measured abundance fitness meets or exceeds -0.2 for N69M
A: criterion met

Q: Does the variant M68V have recorded abundance fitness that is -0.2 or more?
A: criterion not met

Q: Determine whether measured abundance fitness meets or exceeds -0.2 for G67I
A: criterion not met

Q: I'd appreciate it if you could say whether L4R has abundance fitness at least equal to -0.2.
A: criterion met

Q: Decide: is the reported value of abundance fitness for R42V equal to or greater than -0.2?
A: criterion met

Q: Check the entry G12H : does abundance fitness equal or exceed -0.2?
A: criterion met

Q: Test whether the variant K62P records abundance fitness of -0.2 or higher.
A: criterion not met

Q: Decide: abundance fitness of T19E >= -0.2?
A: criterion not met

Q: Textbook exercise: given the entry K24E , state whether its abundance fitness is greater than or equal to -0.2.
A: criterion met

Q: Does the variant C20M have recorded abundance fitness that is -0.2 or more?
A: criterion not met

Q: Does N36I have a reported abundance fitness of at least -0.2?
A: criterion met

Q: Does L64F have a reported abundance fitness of at least -0.2?
A: criterion met

Q: Assess whether reported abundance fitness for I46V sits at -0.2 or higher.
A: criterion met

Q: Please indicate if the recorded abundance fitness for F26C meets or exceeds -0.2.
A: criterion not met

Q: API: above_or_equal(metric=abundance fitness, cutoff=-0.2) for item R51A
A: criterion met

Q: Item C39F with abundance fitness of -0.2 or above?
A: criterion not met

Q: Given the entry R42Y , answer whether its abundance fitness meets or surpasses -0.2.
A: criterion met

Q: Textbook exercise: given the entry M68A , state whether its abundance fitness is greater than or equal to -0.2.
A: criterion not met

Q: Is the recorded value of abundance fitness equal to or greater than -0.2 for this variant? L64D
A: criterion not met

Q: Please indicate if the recorded abundance fitness for A66R meets or exceeds -0.2.
A: criterion met

Q: hey, is abundance fitness for this one >= -0.2? S7F
A: criterion met

Q: Please tell me: is the variant K24I at or over -0.2 in terms of abundance fitness?
A: criterion not met

Q: Could you please find out whether C13M has abundance fitness that meets -0.2 or exceeds it?
A: criterion met

Q: Reported abundance fitness reaches at least -0.2 for V31D ?
A: criterion not met

Q: // inclusive: abundance fitness at least -0.2? input: N69G
A: criterion met

Q: State whether the measured abundance fitness reaches -0.2, counting equality as reaching it, for K24C
A: criterion met
